Taken from PubChem BioAssay (NCI).

// reported growth per item
# System: UO-31 renal
# Experimental details: NCI-60 one-dose screen, 48 h (100 = growth as untreated, 0 = no growth, -100 = all killed)
# Cond: 10 µM unless noted
About 83,000 compounds went through this panel and 20% of them were active in at least one assay; those are over-represented in the sample as a whole. The source made the active and inactive calls. Rule for the calls: active = growth percent below 10; inactive = the rest.

Some compounds with known growth results, for comparison:
| Compound | growth |
| --- | --- |
| OC(COc1cccc2ccccc12)CN1CCN(c2ccccc2)CC1 (centres undefined) | 82.2% (inactive) |
| N#C/C=C(\c1ccc([N+](=O)[O-])cc1)n1nnc2cc(Cl)c(Cl)cc21 | -70.9% (active) |
| O=C(CC12CC3CC(CC(C3)C1)C2)NCCOCCOCCNC(=O)c1cc2c(o1)C(=O)c1ccccc1C2=O | -60.1% (active) |
| C=C1c2c(C)nn(-c3ccc(N)cc3)c2N(C)C23CC1C1(C)c4c(C)nn(-c5ccc(N)cc5)c4N(C)C(C)(CC12)C3 (centres undefined) | 51% (inactive) |
| Cc1c(C)c2c(c(C)c1NC(=O)/C=C\C(=O)O)CCC(C)(CCCC(C)CCCC(C)CCCC(C)C)O2 (centres undefined) | 37.2% (inactive) |

# context switch: different compound, same growth
IN: Using the record for `CCOc1ccc(-c2nc3ccc(-c4nc5ccc(N6CCN(C)CC6)cc5[nH]4)cc3[nH]2)cc1OCC` , report its growth.
OUT: 98.6% (inactive)
